experiment: self-splicing fitness, log relative to wild type (ln ratio); higher = more splicing; Tetrahymena group I intron in knt gene, E. coli kanamycin selection, DiMSum; sequences stand for … in CUCUCU…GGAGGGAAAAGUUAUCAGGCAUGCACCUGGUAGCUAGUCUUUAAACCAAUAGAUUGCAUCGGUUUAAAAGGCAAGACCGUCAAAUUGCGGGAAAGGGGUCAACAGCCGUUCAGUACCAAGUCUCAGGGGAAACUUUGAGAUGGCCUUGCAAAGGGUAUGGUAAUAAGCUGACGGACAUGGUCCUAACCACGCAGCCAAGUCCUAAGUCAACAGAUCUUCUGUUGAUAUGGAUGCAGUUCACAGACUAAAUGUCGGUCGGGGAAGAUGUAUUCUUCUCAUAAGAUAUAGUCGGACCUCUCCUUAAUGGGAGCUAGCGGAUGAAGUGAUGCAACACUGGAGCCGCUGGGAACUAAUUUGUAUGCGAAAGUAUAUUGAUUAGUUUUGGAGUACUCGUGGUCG;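 also: selection with 25 µg/mL kanamycin versus none on LB agar overnight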
condition_set: 37 °C
Tag: true if measured self-splicing fitness (ln) is not below -2, false if it is.

Problem: Textbook exercise: given the entry AUGCAGCAAUAUUACGCUGG , state whether its self-splicing fitness (ln) is greater than or equal to -2.
Solution: false

----------
experiment: self-splicing fitness, log relative to wild type (ln ratio); higher = more splicing; Tetrahymena group I intron in knt gene, E. coli kanamycin selection, DiMSum; sequences stand for … in CUCUCU…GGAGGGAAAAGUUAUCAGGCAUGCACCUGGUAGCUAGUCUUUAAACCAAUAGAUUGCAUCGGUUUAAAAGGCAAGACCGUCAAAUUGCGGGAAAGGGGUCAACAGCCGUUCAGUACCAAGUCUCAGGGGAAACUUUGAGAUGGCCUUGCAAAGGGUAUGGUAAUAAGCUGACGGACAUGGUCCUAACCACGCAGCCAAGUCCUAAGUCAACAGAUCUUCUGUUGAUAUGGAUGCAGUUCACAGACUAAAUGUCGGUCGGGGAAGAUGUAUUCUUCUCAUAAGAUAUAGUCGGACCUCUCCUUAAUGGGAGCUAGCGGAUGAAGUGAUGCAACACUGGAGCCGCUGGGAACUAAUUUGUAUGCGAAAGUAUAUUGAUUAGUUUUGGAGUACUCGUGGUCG
condition_set: 30 °C
readout_label: self-splicing fitness (ln)
Answer with the value's number alone.

The value of self-splicing fitness (ln) measured for the sequence AUAUAGCAAUAUUACGCUCG turned out to be -0.992

New cases:
The value of self-splicing fitness (ln) measured for the sequence CAGUAGCAAUAUUACGCCUG turned out to be -2.42

The value of self-splicing fitness (ln) measured for the sequence AAGGAGCAAUAUUACGUUCC turned out to be -3.48

The value of self-splicing fitness (ln) measured for the sequence AGUAAGCAAUAUUACGUUAA turned out to be -2.91

The value of self-splicing fitness (ln) measured for the sequence UCGCAGCAAUAUUACGUCAC turned out to be -3.57

The value of self-splicing fitness (ln) measured for the sequence AUAGAGCAAUAUUACGGAUG turned out to be -1.43

The value of self-splicing fitness (ln) measured for the sequence GCCUAGCAAUAUUACGGCGC turned out to be -0.67

The value of self-splicing fitness (ln) measured for the sequence GUCAAGCAAUAUUACGCCCG turned out to be -2.15

The value of self-splicing fitness (ln) measured for the sequence UAGAAGCAAUAUUACGACGU turned out to be -1.27

The value of self-splicing fitness (ln) measured for the sequence GAGCAGCAAUAUUACGGAAA turned out to be -3.08

The value of self-splicing fitness (ln) measured for the sequence UAUCAGCAAUAUUACGCAUU turned out to be -1.42

The value of self-splicing fitness (ln) measured for the sequence CCACAGCAAUAUUACGGGAU turned out to be -4.56

The value of self-splicing fitness (ln) measured for the sequence AAGUAGCAAUAUUACGAAGA turned out to be -2.57

Data origin, for the record: the supplement of paper PMC7877785
